Tested Target: Neuraminidase (Influenza A virus)
Sequence (B4URF0 whole entry): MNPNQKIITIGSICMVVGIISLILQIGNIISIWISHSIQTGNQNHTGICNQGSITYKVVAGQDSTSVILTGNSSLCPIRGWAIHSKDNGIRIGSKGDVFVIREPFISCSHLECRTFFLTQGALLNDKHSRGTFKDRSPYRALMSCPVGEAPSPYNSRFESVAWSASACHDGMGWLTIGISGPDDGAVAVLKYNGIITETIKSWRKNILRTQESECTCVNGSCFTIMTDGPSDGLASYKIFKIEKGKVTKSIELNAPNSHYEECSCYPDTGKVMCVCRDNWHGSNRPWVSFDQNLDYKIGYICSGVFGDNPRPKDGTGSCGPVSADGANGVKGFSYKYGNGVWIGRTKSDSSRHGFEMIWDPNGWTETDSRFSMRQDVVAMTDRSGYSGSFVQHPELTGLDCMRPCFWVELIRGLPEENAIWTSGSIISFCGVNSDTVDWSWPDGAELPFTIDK
Provide the recorded IC50 for the entries that follow.
Report as a plain number; the unit µM is understood.

Find IC50 for O=C(/C=C/c1ccc(O)cc1)O[C@H]1[C@H](O)[C@@H](CO)O[C@H]2OC[C@H](c3ccccc3)O[C@@H]21 on Neuraminidase (Influenza A virus) and write it down.
229

Find IC50 for O=C(/C=C/c1ccc(O)c(O)c1)O[C@H]1[C@H](O)[C@@H](CO)O[C@H]2OC[C@@H](c3ccccc3)O[C@@H]21 on Neuraminidase (Influenza A virus) and write it down.
62.5

Find IC50 for CSCC[C@@H](N)C(=O)O[C@H]1[C@H](O)[C@@H](CO)O[C@H]2OC[C@@H](c3ccccc3)O[C@@H]21 on Neuraminidase (Influenza A virus) and write it down.
189

Find IC50 for O=C(/C=C/c1ccc(O)c(O)c1)O[C@H]1[C@H](O)[C@@H](CO)O[C@H]2OC[C@H](c3ccccc3)O[C@@H]21 on Neuraminidase (Influenza A virus) and write it down.
67.3

Find IC50 for C[C@@H]1O[C@@H](O[C@H]2[C@H](O)[C@@H](COC(=O)/C=C/c3ccc(O)c(O)c3)O[C@H]3OC[C@H](c4ccc(O)c(O)c4)O[C@@H]32)[C@H](O)[C@H](O)[C@H]1O [ISOCRENATOSIDE] on Neuraminidase (Influenza A virus) and write it down.
186

Find IC50 for COc1cccc(/C=C/C(=O)O[C@H]2[C@H](O)[C@@H](CO)O[C@H]3OC[C@@H](c4ccccc4)O[C@@H]32)c1 on Neuraminidase (Influenza A virus) and write it down.
67

Find IC50 for O=C(/C=C/c1ccc(O)cc1)O[C@H]1[C@H](O)[C@@H](CO)O[C@H]2OC[C@@H](c3ccccc3)O[C@@H]21 on Neuraminidase (Influenza A virus) and write it down.
182

* * *

Provide the recorded pIC50 for the entries that follow.
Tested Target: Neuraminidase (Influenza A virus)
Keep it numeric: pIC50 is minus log10 of the concentration in mol/L.

Find pIC50 for COc1cccc(/C=C/C(=O)O[C@H]2[C@H](O)[C@@H](CO)O[C@H]3OC[C@H](c4ccccc4)O[C@@H]32)c1 on Neuraminidase (Influenza A virus) and write it down.
4.01

Find pIC50 for CSCC[C@@H](N)C(=O)O[C@H]1[C@H](O)[C@@H](CO)O[C@H]2OC[C@H](c3ccccc3)O[C@@H]21 on Neuraminidase (Influenza A virus) and write it down.
3.66

Find pIC50 for C[C@@H]1O[C@@H](O[C@@H]2[C@H]3O[C@@H](c4ccc(O)c(O)c4)CO[C@@H]3O[C@H](CO)[C@H]2OC(=O)/C=C/c2ccc(O)c(O)c2)[C@H](O)[C@H](O)[C@H]1O [CRENATOSIDE] on Neuraminidase (Influenza A virus) and write it down.
3.84

* * *

Tested Target: Neuraminidase (Influenza A virus)
Assay Summary: Inhibition of Influenza A virus neuraminidase at 1000 ug/ml
Experimental Readout: inhibition

Note inhibition for the compound shown: COc1cccc(/C=C/C(=O)O[C@H]2[C@H](O)[C@@H](CO)O[C@H]3OC[C@H](c4ccccc4)O[C@@H]32)c1
91.2%

Note inhibition for the compound shown: C[C@@H]1O[C@@H](O[C@H]2[C@H](O)[C@@H](CO)O[C@H]3OC[C@H](c4ccccc4)O[C@@H]32)[C@H](O)[C@H](O)[C@H]1O
8.28%

Note inhibition for the compound shown: CC(C)[C@@H](N)C(=O)O[C@H]1[C@H](O)[C@@H](CO)O[C@H]2OC[C@@H](c3ccccc3)O[C@@H]21
25.3%

Note inhibition for the compound shown: C[C@@H]1O[C@@H](O[C@H]2[C@H](O)[C@@H](CO)O[C@H]3OC[C@@H](c4ccccc4)O[C@@H]32)[C@H](O)[C@H](O)[C@H]1O
11.7%

Note inhibition for the compound shown: O=C(/C=C/c1ccccc1)O[C@H]1[C@H](O)[C@@H](CO)O[C@H]2OC[C@H](c3ccccc3)O[C@@H]21
17.6%

Note inhibition for the compound shown: O=C(/C=C/c1ccc(O)c(O)c1)O[C@H]1[C@H](O)[C@@H](CO)O[C@H]2OC[C@H](c3ccccc3)O[C@@H]21
94.1%

Note inhibition for the compound shown: CSCC[C@@H](N)C(=O)O[C@H]1[C@H](O)[C@@H](CO)O[C@H]2OC[C@H](c3ccccc3)O[C@@H]21
88.8%

Note inhibition for the compound shown: CSCC[C@@H](N)C(=O)O[C@H]1[C@H](O)[C@@H](CO)O[C@H]2OC[C@@H](c3ccccc3)O[C@@H]21
90.3%

Note inhibition for the compound shown: CC(C)[C@@H](N)C(=O)O[C@H]1[C@H](O)[C@@H](CO)O[C@H]2OC[C@H](c3ccccc3)O[C@@H]21
16.6%

Note inhibition for the compound shown: OC[C@H]1O[C@H]2OC[C@@H](c3ccccc3)O[C@@H]2[C@@H](O)[C@@H]1O
16.8%

Note inhibition for the compound shown: O=C(/C=C/c1ccc(O)cc1)O[C@H]1[C@H](O)[C@@H](CO)O[C@H]2OC[C@H](c3ccccc3)O[C@@H]21
65%

Note inhibition for the compound shown: C[C@@H]1O[C@@H](O[C@@H]2[C@H]3O[C@@H](c4ccc(O)c(O)c4)CO[C@@H]3O[C@H](CO)[C@H]2OC(=O)/C=C/c2ccc(O)c(O)c2)[C@H](O)[C@H](O)[C@H]1O [CRENATOSIDE]
89.2%

Note inhibition for the compound shown: COc1cccc(/C=C/C(=O)O[C@H]2[C@H](O)[C@@H](CO)O[C@H]3OC[C@@H](c4ccccc4)O[C@@H]32)c1
95.9%

Note inhibition for the compound shown: O=C(/C=C/c1ccc(O)c(O)c1)O[C@H]1[C@H](O)[C@@H](CO)O[C@H]2OC[C@@H](c3ccccc3)O[C@@H]21
97.4%

* * *

Provide the recorded inhibition for the entries that follow.
Tested Target: UniProtKB B4URF0
Assay Summary: Inhibition of Influenza A virus neuraminidase at 1000 ug/ml
Numeric answer plus unit only.

Note inhibition for the molecule shown: OC[C@H]1O[C@H]2OC[C@H](c3ccccc3)O[C@@H]2[C@@H](O)[C@@H]1O
3.9%

Note inhibition for the molecule shown: O=C(/C=C/c1ccccc1)O[C@H]1[C@H](O)[C@@H](CO)O[C@H]2OC[C@@H](c3ccccc3)O[C@@H]21
29.8%

Note inhibition for the molecule shown: O=C(/C=C/c1ccc(O)cc1)O[C@H]1[C@H](O)[C@@H](CO)O[C@H]2OC[C@@H](c3ccccc3)O[C@@H]21
66.7%

Note inhibition for the molecule shown: C[C@@H]1O[C@@H](O[C@H]2[C@H](O)[C@@H](COC(=O)/C=C/c3ccc(O)c(O)c3)O[C@H]3OC[C@H](c4ccc(O)c(O)c4)O[C@@H]32)[C@H](O)[C@H](O)[C@H]1O [ISOCRENATOSIDE]
86.3%
